Settings: PAMPA, 7 h
Description: Permeability across PAMPA membrane after 7 hrs
log Pe values for the molecules below.
Give the value as a plain number.

Exam item: What value of log Pe has been recorded for this entry: O=C(O)c1ccccc1O
Marked response: -4.16

Exam item: So what does the record say about log Pe for Nc1ccc(S(=O)(=O)Nc2ncccn2)cc1 ?
Marked response: -6.2

Exam item: What log Pe value was documented for this molecule, CN1CCC[C@H]1c1cccnc1 ?
Marked response: -4.58

New cases:
Exam item: What value of measured log Pe is listed for CC(=O)[C@H]1CC[C@H]2[C@@H]3CCC4=CC(=O)CC[C@]4(C)[C@H]3CC[C@]12C ?
Marked response: -4.56

Exam item: Name the reported log Pe value associated with the molecule c1ccncc1
Marked response: -4.35

Exam item: Could you share which log Pe value was measured for Cn1c(=O)c2c(ncn2C)n(C)c1=O ?
Marked response: -5.63

Exam item: Could you tell me which log Pe is on file for Oc1ccc2ccccc2c1 ?
Marked response: -4.19

Exam item: I would be grateful if you could share the reported log Pe for Oc1ccccc1 .
Marked response: -4.14

Exam item: Given the entry CC(C)NCC(O)COc1cccc2ccccc12 (centres undefined) , report its measured log Pe.
Marked response: -4.25
